Assay: qHTS assay to identify small molecule antagonists of the thyroid receptor (TR) signaling pathway (AID 743065); further: nearly all actives have a fitted effect of over 55% in size
Conditions: GH3.TRE-Luc, T3-stimulated luciferase inhibition, 23.5 h; series mostly up to 70.3 µM
Inconclusive results are not listed. Calls of active or inactive are those of the source. The call rests on the fitted dose curve; in most records, active means well fitted inhibition curve with a large enough effect in the repeat runs; inconclusive means weak or mixed curves; inactive means no such curve, though single readings can be large or run the other way.
# valid calls are YES for active, NO for inactive; nothing else

Completed entries (count: 8):
>>> print(df.to_string())
                                   molecule  class_name
0             Cc1cccc(N=Nc2ccc(N(C)C)cc2)c1          NO
1  OC(c1ccc(Cl)cc1)(c1cncnc1)c1ccccc1Cl (stereo not given)         YES
2                CC1=C(C(=O)Nc2ccccc2)SCCO1          NO
3                               O=NN1CCOCC1          NO
4                                 O=C1CCCO1          NO
5  COP(=S)(OC)Oc1ccc(Sc2ccc(OP(=S)(OC)OC)cc2)cc1          NO
6                                 CCC/C=N/O          NO
7      O=[N+]([O-])/N=C1\NCCN1Cc1ccc(Cl)nc1          NO

Request: Please let me know the test result on file for `Nc1ccc2ccccc2c1` .
Response: NO

Request: # fetch the recorded call for CC1CC(=O)O1 (stereo not given) here
Response: NO

Request: Which outcome was assigned to `CC(C)(O)C(=O)Nc1ccc([N+](=O)[O-])c(C(F)(F)F)c1` in this test?
Response: YES

Request: Could you check what this test reported for `N#CCCCCC#N` ?
Response: NO

Request: # fetch the recorded call for `S=c1[nH]c2ccccc2[nH]1` here
Response: NO

Request: Returns: the outcome recorded for `ClC(Cl)(Cl)Br` in this assay.
Response: NO

Request: Hi team, can someone confirm the assay call for `Cc1ccc([N+](=O)[O-])cc1` ?
Response: NO

---

Assay: A CellTox Green Cytotoxicity Assay to monitor cytotoxicity in HepG2 cells - 24 hour (AID 1224878); further: nearly all actives have a fitted effect of over 45% in size
Conditions: CellTox Green fluorescence; series mostly up to 76.8 µM
Results filed as inconclusive are left out. Active and inactive are the calls of the source. The call rests on the fitted dose curve; in most records, active means well fitted activation curve with a large enough effect in the repeat runs; inconclusive means weak or mixed curves; inactive means flat fitted curve, though single readings scatter.
Output constraint: value belongs to 1 (yes) for active, 0 (no) for inactive

                                   molecule  class_name
0  CC(O)CN(CC(C)O)CC(C)O (stereo unspecified)      0 (no)
1                  [Cl-].[Cl-].[Cl-].[Fe+3]      0 (no)
2     C=CC(=O)OCC(CC)(COC(=O)C=C)COC(=O)C=C     1 (yes)

Request: Test call, this molecule: `CN(C)c1ccccc1`
Response: 0 (no)

Request: Which outcome was entered for the molecule `Cc1cccc(N=Nc2ccc(N(C)C)cc2)c1` in this test?
Response: 0 (no)

Request: For `CC[n+]1c(-c2ccccc2)c2cc(N)ccc2c2ccc(N)cc21` , which call appears in the assay record?
Response: 0 (no)

Request: Identify the outcome logged in this assay for the molecule shown: `C=C(C)C#N`
Response: 0 (no)

Request: Any idea what this test logged for `[CH3][Sn]([Cl])([Cl])[Cl]` ?
Response: 0 (no)

Request: Record request — test call for `CC(C)(O)C#N`
Response: 0 (no)

Request: Outcome? `C[N+](C)(C)C`
Response: 0 (no)

Request: Given c1ccc(C2CO2)cc1 (stereo unspecified) , state the outcome it received in this test.
Response: 0 (no)
